Tested on: AD38 cells
ASSAY METHOD TEXT: Viability of AD38 cells (Promega CellTiter-Glo)
Format: cell-based
CONDITION PARAMETERS: 10 μM compound, 6 days, CellTiter-Glo luminescence normalized to DMSO control (100%)
Protocol: Example 2: Assay Measuring Activity of Compounds on Viral Production in and on Viability of AD38 Cells AD38 cells were then re-suspended with 10 mL of Treatment Medium and counted. […] At the end of compound treatment period cell viability was assessed using a Promega CellTiter-Glo protocol. […]
METRIC NAME: AD38 Viability Normalized Result (cmpd/DMSO %) at 10 μM

- STRUCTURE SMILES: "O=C(NCc1nccs1)c1ccc2c(c1)NC(=O)c1ccccc1S2(=O)=O"
  TARGET: "AD38 cells"
  QUANTITATIVE READOUT: 82
- STRUCTURE SMILES: "O=C(NCc1cnc(C(F)(F)F)s1)c1ccc2c(c1)NC(=O)c1ccccc1S2"
  TARGET: "AD38 cells"
  QUANTITATIVE READOUT: 104
- STRUCTURE SMILES: "O=C(NCc1cnc(-c2ccc(O)nc2)s1)c1ccc2c(c1)NC(=O)c1ccccc1S2(=O)=O"
  TARGET: "AD38 cells"
  QUANTITATIVE READOUT: 104
- STRUCTURE SMILES: "O=C(NCc1cnc(-c2cnc(O)nc2)s1)c1ccc2c(c1)NC(=O)c1ccccc1S2(=O)=O"
  TARGET: "AD38 cells"
  QUANTITATIVE READOUT: 100
- STRUCTURE SMILES: "O=C(NCc1cnc(-c2ccc(NC(=O)C3CC3)cc2)s1)c1ccc2c(c1)NC(=O)c1ccccc1S2(=O)=O"
  TARGET: "AD38 cells"
  QUANTITATIVE READOUT: 97
- STRUCTURE SMILES: "CN(Cc1cnc(-c2ccc(O)cc2)s1)C(=O)c1ccc2c(c1)NC(=O)c1ccccc1S2(=O)=O"
  TARGET: "AD38 cells"
  QUANTITATIVE READOUT: 90
- STRUCTURE SMILES: "O=C(NCc1cnc(-c2ccc(N3CCCC3=O)cc2)s1)c1ccc2c(c1)NC(=O)c1ccccc1O2"
  TARGET: "AD38 cells"
  QUANTITATIVE READOUT: 93
- STRUCTURE SMILES: "COc1ncc(-c2ncc(CNC(=O)c3ccc4c(c3)NC(=O)c3ccccc3O4)s2)cn1"
  TARGET: "AD38 cells"
  QUANTITATIVE READOUT: 106
- STRUCTURE SMILES: "O=C(NCc1cnc(-c2ccc3ncccc3c2)s1)c1ccc2c(c1)NC(=O)c1ccccc1S2(=O)=O"
  TARGET: "AD38 cells"
  QUANTITATIVE READOUT: 118
- STRUCTURE SMILES: "O=C(NCc1cnc(N2CCCCC2)s1)c1ccc2c(c1)NC(=O)c1ccccc1S2(=O)=O"
  TARGET: "AD38 cells"
  QUANTITATIVE READOUT: 109
- STRUCTURE SMILES: "O=C(NCc1cnc(C(F)(F)F)s1)c1ccc2c(c1)NC(=O)c1ccccc1N2CCO"
  TARGET: "AD38 cells"
  QUANTITATIVE READOUT: 96
- STRUCTURE SMILES: "Cl.N=C(N)c1ccc(-c2ncc(CNC(=O)c3ccc4c(c3)NC(=O)c3ccccc3S4(=O)=O)s2)cc1"
  TARGET: "AD38 cells"
  QUANTITATIVE READOUT: 108
- STRUCTURE SMILES: "NS(=O)(=O)c1ccc(-c2ncc(CNC(=O)c3ccc4c(c3)NC(=O)c3ccccc3O4)s2)cc1"
  TARGET: "AD38 cells"
  QUANTITATIVE READOUT: 107
- STRUCTURE SMILES: "O=C(NCc1cnc(-c2ccc(OCCCNCC(F)(F)F)cc2)s1)c1ccc2c(c1)NC(=O)c1ccccc1S2(=O)=O"
  TARGET: "AD38 cells"
  QUANTITATIVE READOUT: 93
- STRUCTURE SMILES: "CN1c2ccc(C(=O)NCc3cnc(-c4ccc(O)cc4)s3)cc2NC(=O)c2ccccc21"
  TARGET: "AD38 cells"
  QUANTITATIVE READOUT: 100
- STRUCTURE SMILES: "O=C(NCc1cnc(-c2ccc(O)c(F)c2)s1)c1ccc2c(c1)NC(=O)c1ccccc1O2"
  TARGET: "AD38 cells"
  QUANTITATIVE READOUT: 105
- STRUCTURE SMILES: "NC(=O)c1ccc(-c2ncc(CNC(=O)c3ccc4c(c3)NC(=O)c3ccccc3S4(=O)=O)s2)c(F)c1"
  TARGET: "AD38 cells"
  QUANTITATIVE READOUT: 121
- STRUCTURE SMILES: "O=C(NCc1cnc(-c2cc(F)ccn2)s1)c1ccc2c(c1)NC(=O)c1ccccc1S2(=O)=O"
  TARGET: "AD38 cells"
  QUANTITATIVE READOUT: 96
- STRUCTURE SMILES: "N#Cc1ccc(-c2ncc(CNC(=O)c3ccc4c(c3)NC(=O)c3ccccc3S4(=O)=O)s2)cc1F"
  TARGET: "AD38 cells"
  QUANTITATIVE READOUT: 88
- STRUCTURE SMILES: "O=C(NCc1cnc(-c2ccc(O)cc2)s1)c1ccc2c(c1)NC(=O)c1ccc(F)cc1S2"
  TARGET: "AD38 cells"
  QUANTITATIVE READOUT: 95
- STRUCTURE SMILES: "Nc1ccc(-c2ncc(CNC(=O)c3ccc4c(c3)NC(=O)c3ccccc3O4)s2)cn1"
  TARGET: "AD38 cells"
  QUANTITATIVE READOUT: 88
- STRUCTURE SMILES: "NC(=O)c1ccc(-c2ncc(CNC(=O)c3ccc4c(c3)NC(=O)c3ccccc3S4(=O)=O)s2)cc1"
  TARGET: "AD38 cells"
  QUANTITATIVE READOUT: 107
- STRUCTURE SMILES: "CN(CCCCc1ccc(-c2ncc(CNC(=O)c3ccc4c(c3)NC(=O)c3ccccc3S4(=O)=O)s2)cc1)C1CC1"
  TARGET: "AD38 cells"
  QUANTITATIVE READOUT: 94

Values compiled from patent US11814376B2.
